Data provenance is patent US20250034594A1.

Test system: gene editing with dCas9
procedureText: Screen of 322 new SSAP proteins, gene editing activity with dCas9 (Table 5)
Type: cell-based
setupConditions: normalized

| molecule | dCas9 with SSAP activity (normalized) |
| --- | --- |
| SSAP_292: SEQ ID NO: 461; Paenibacillus rhizosphaerae (protein, listed as Paenibacillus rhizosphaerae) SSKLVEINSKLDSFLDAQHKAMPKGFNKTRFLQNSMSVLRDIEGLEQCDPKSVALVMLKGAFLGLDFFNKECYPVVYAGKVEFQTDYKGEVKLVKKYSTKPVREIYAKLVRQGDDFSEEIVAGSQTINFKPLPFNNGEIVGAFAVVNYVDGTMQYDTMSTEEIEKIKVNFSRKSKKTNEYSKAWVVTPGEMYKKTVLRRLCKTIDLDFDTIEQAQAFEDAADMDFNQDSKPQQQSPLNPMVIDVEYEEVKEEQADAAEQE | −1.546 |
